src = patent US9346798B2

- target.desc: Nav 1.7 (Homo sapiens (Human))
- run.description: Nav 1.7 in vitro assay, IonWorks Quattro (IWQ) population patch-clamp
- Assay type: cell-based
- study.conditions: HEK 293 cells stably transfected with Nav 1.7; 26th pulse to -20 mV
pIC50: −log10 of the molar value.
reported.endpoint: pIC50

• N#Cc1ccc(N2CCOc3cc(S(=O)(=O)Nc4nccs4)ccc32)c(Cl)c1 = 6.85
• O=S(=O)(Nc1nccs1)c1ccc2c(c1)OCCN2c1ccccc1OC(F)F [Example 179, 2,2,2-Trifluoroacetate] = 6.95

1: O=S(=O)(Nc1ccccn1)c1ccc2c(c1)OCCN2c1ccc(C(F)(F)F)cc1C1=CCNCC1
2: Cc1ccc(N2CCOc3cc(S(=O)(=O)Nc4nccs4)ccc32)cc1C#N
Field: entry with larger pIC50 (options 1 / 2 ). Selection: enter the item's label.
1
(1: 7.31, 2: 5.89)

====

- target.desc: UniProtKB Q15858
- run.description: Nav 1.7 in vitro assay, IonWorks Quattro (IWQ) population patch-clamp
- Type: cell-based
- study.conditions: HEK293; values marked *; 4.9 μM; HEK 293 cells stably transfected with Nav 1.7; read-out: Nav 1.7 IWQ percent inhibition at 4.9 μM
reported.endpoint: inhibition at 4.9 µM (%)

- CCN(CC)C(=O)CN1CCOc2cc(S(=O)(=O)Nc3nccs3)ccc21: 20

A: O=C1COc2cc(S(=O)(=O)Nc3nncs3)ccc2N1c1cccc(Cl)c1
B: O=S(=O)(Nc1cncs1)c1ccc2c(c1)OCCN2c1ccc(C(F)(F)F)cc1C1=CCNCC1 [Example 85, 2,2,2-Trifluoroacetate]
Field: entry with larger inhibition at 4.9 µM (options A / B ). Selection: enter the item's label.
B
(B: 41.1%, A: 26.4%)

====

- target.desc: Nav 1.5 (Homo sapiens (Human), UniProt Q14524)
- Sequence (Q14524 whole entry): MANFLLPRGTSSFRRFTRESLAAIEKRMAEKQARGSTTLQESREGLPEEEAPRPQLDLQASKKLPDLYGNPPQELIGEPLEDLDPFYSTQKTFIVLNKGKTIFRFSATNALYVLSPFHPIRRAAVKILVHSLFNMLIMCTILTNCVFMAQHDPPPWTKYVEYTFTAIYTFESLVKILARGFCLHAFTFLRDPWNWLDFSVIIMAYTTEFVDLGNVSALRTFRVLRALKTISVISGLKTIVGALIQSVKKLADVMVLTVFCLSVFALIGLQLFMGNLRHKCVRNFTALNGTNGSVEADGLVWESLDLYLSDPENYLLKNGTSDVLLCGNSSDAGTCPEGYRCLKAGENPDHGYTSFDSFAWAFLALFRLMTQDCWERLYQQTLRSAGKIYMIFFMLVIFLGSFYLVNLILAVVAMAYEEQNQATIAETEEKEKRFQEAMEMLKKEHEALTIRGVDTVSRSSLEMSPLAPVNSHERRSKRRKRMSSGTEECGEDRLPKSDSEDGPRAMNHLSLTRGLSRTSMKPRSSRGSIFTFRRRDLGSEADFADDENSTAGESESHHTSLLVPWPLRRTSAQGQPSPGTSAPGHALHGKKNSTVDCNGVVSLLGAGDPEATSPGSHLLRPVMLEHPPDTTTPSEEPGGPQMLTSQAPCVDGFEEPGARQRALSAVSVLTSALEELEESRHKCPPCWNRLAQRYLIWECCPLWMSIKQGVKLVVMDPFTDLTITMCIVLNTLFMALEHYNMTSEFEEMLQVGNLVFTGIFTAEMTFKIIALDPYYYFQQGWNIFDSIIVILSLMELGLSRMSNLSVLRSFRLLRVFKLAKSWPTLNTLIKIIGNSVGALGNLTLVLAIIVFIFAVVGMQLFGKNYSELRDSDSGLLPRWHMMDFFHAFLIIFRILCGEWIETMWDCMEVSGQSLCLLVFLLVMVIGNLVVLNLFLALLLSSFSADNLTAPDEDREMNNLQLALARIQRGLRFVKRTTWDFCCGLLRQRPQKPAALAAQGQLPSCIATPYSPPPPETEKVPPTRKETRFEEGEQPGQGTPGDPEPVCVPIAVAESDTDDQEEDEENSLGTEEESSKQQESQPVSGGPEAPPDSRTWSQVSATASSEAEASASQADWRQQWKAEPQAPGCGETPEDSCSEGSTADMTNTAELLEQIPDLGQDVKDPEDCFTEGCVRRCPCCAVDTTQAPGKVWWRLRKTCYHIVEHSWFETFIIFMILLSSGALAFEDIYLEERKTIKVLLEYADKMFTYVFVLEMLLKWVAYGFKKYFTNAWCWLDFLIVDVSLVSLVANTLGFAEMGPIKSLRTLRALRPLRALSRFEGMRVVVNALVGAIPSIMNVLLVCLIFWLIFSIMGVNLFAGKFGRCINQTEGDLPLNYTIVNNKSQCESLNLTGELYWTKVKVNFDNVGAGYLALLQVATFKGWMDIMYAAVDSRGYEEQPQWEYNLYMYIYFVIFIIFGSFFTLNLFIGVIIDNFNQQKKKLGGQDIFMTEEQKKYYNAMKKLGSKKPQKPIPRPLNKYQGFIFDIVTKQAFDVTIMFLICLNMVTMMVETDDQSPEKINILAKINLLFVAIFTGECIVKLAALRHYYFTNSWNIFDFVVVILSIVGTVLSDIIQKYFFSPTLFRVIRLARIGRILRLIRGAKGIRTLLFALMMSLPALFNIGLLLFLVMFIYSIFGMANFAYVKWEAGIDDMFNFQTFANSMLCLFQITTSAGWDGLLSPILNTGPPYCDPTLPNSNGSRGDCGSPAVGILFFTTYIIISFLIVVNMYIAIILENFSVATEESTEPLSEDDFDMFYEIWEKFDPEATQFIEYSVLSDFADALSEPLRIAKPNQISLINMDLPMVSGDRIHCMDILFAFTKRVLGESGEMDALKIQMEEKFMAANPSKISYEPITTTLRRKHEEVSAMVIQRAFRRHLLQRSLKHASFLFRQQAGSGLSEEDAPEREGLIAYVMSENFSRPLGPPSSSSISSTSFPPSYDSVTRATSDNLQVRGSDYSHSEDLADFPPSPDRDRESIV
- run.description: Nav 1.5 in vitro assay, IonWorks Quattro (IWQ) population patch-clamp
- Type: cell-based
- study.conditions: HEK 293 cells stably transfected with Nav 1.5; 26th pulse to -20 mV
pIC50: −log10 of the molar value.
reported.endpoint: pIC50

• C[C@H]1CN(c2ccc(C(F)(F)F)cc2C#N)c2ccc(S(=O)(=O)Nc3nccs3)cc2O1 (single isomer, unassigned) = 6.14
• COc1cc(C#N)ccc1CN1CCOc2cc(S(=O)(=O)Nc3nccs3)ccc21 = < 5.00

Entry O=S(=O)(Nc1nncs1)c1ccc2c(c1)OCCN2c1ccc(C(F)(F)F)cc1Cl needs its pIC50 filled in; supply it.
< 5.00

====

- target.desc: Nav 1.7 (Homo sapiens (Human), UniProt Q15858)
- Sequence (Q15858 whole entry): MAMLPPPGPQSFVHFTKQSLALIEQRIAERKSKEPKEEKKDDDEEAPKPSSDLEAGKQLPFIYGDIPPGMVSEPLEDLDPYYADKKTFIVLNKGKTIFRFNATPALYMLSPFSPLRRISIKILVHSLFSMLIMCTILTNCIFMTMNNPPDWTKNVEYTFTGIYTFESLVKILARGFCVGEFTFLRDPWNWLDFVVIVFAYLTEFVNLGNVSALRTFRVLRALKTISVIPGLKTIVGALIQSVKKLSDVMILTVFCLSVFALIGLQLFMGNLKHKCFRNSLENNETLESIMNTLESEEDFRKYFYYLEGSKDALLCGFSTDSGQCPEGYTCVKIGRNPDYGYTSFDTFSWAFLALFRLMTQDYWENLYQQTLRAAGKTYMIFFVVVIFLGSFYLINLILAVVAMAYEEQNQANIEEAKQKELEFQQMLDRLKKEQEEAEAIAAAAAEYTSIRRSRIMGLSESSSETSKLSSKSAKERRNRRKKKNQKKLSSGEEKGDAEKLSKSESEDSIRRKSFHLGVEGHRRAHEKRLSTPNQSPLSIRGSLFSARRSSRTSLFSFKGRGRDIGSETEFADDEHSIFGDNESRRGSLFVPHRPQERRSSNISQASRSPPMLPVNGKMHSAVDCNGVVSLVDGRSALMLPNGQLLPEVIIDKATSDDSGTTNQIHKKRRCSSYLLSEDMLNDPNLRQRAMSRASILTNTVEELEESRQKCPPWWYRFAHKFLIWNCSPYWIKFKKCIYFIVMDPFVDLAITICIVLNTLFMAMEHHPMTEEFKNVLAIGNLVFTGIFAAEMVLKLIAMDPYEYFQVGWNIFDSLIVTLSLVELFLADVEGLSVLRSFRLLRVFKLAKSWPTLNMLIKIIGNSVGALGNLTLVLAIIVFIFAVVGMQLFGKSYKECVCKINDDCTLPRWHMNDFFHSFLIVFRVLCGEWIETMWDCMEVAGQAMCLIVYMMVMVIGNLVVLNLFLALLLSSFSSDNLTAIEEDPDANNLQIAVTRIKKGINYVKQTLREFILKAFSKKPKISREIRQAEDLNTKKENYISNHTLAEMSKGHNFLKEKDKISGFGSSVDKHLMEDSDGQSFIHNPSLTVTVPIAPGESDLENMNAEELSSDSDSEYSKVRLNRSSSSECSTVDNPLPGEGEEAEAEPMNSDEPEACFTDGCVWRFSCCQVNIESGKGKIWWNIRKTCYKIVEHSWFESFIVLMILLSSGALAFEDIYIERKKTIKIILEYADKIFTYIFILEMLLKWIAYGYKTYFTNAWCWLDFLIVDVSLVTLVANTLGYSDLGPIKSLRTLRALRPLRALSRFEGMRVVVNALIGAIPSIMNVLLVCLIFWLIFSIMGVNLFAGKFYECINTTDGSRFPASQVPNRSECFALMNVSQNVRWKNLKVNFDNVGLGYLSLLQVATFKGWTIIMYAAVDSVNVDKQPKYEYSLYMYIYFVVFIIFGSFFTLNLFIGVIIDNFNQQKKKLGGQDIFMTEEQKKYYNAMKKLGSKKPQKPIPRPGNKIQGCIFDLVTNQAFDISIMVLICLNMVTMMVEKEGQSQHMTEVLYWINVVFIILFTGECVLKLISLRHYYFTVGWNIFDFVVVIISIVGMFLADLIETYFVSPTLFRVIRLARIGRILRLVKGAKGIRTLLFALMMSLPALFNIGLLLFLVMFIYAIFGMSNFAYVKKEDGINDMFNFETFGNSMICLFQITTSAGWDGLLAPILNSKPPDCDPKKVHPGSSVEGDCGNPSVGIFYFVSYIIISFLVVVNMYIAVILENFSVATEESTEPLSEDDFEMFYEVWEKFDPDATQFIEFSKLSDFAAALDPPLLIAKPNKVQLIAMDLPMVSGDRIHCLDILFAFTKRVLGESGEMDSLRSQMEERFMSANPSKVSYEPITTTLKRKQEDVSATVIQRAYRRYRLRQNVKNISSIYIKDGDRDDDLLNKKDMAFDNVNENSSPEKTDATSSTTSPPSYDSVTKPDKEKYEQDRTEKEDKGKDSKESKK
- run.description: Nav 1.7 in vitro assay, IonWorks Quattro (IWQ) population patch-clamp
- Type: cell-based
- study.conditions: HEK 293 cells stably transfected with Nav 1.7; 26th pulse to -20 mV
pIC50: −log10 of the molar value.
reported.endpoint: pIC50

Reference set, count: 4
- Cc1cc(N2CCOc3cc(S(=O)(=O)Nc4nccs4)ccc32)ccc1F [Example 81, 2,2,2-Trifluoroacetate]: 6.54
- O=S(=O)(Nc1nccs1)c1ccc2c(c1)OCCN2c1ccc(C(F)(F)F)cc1Cl [Example 5]: 6.61
- CC(=O)N1CCN(c2ccc(C(F)(F)F)cc2Cl)c2ccc(S(=O)(=O)Nc3ncns3)cc21 [Example 20]: 5.12
- COc1ccc(N2CCOc3cc(S(=O)(=O)Nc4ncns4)ccc32)cc1 [Example 37]: 6.68

I: O=S(=O)(Nc1nccs1)c1ccc2c(c1)OCCN2c1ccccc1C1CCOCC1 [Example 149]
II: CCc1ccc(N2CCOc3cc(S(=O)(=O)Nc4nccs4)ccc32)c(C#N)c1 [Example 203]
III: O=S(=O)(Nc1ncco1)c1ccc2c(c1)OCCN2c1ccc(C(F)(F)F)cc1Cl [Example 24]
IV: O=S(=O)(Nc1nccs1)c1ccc2c(c1)OCCN2c1ccc(C(F)(F)F)cc1-c1cncnc1 [Example 54, 2,2,2-Trifluoroacetate]
Please give the order of these molecules when sorted by pIC50, largest value leading. Answer format: list of labels, ordered as asked.
IV, II, I, III
(IV: 7.94, II: 7.06, I: 6.70, III: 6.08)
